Biological target: NTCP (Homo sapiens, UniProt Q14973)
Construct: expressed in transfected cells; host or cells: HepG2-hNTCP-C4
Sequence (Q14973 whole entry): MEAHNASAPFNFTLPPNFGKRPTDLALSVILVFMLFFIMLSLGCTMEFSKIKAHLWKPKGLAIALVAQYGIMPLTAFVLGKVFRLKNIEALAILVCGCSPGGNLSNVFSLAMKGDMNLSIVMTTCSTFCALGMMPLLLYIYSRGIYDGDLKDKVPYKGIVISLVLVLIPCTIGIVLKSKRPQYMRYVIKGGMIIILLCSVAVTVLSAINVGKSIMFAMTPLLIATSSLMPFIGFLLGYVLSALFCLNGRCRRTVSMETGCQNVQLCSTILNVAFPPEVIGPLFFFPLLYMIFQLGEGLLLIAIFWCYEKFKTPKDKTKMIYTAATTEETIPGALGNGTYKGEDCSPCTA
Test: Inhibition of the binding between PreS1 (FITC-labelled) and NTCP expressing cell lines, flow cytometry
Conditions: 2 h, read-out: relative fluorescence intensity compared to the HBV-induced group (HBV PreS1) solely treated with PreS1, 50 µM compound, 20 nM PreS1, HepG2-hNTCP-C4 cell line, 4°C, 2 hours; the lower the value, the more inhibited the binding
Below, each entry is listed alongside its reported activity at 50 µM.
readout: activity at 50 µM

molecule	measured
CC(C)C[C@H](NC(=O)CC[C@@H](C)[C@H]1CC[C@H]2[C@@H]3CC[C@@H]4C[C@H](O)CC[C@]4(C)[C@H]3CC[C@]12C)C(=O)O [Example 47]	≤ 20%
C[C@H](CCC(=O)N1CCCC1C(=O)O)[C@H]1CC[C@H]2[C@@H]3CC[C@@H]4C[C@H](O)CC[C@]4(C)[C@H]3CC[C@]12C (stereo partly shown) [Example 38]	≤ 20%
C[C@H](CCC(=O)N[C@@H](CS)C(=O)O)[C@H]1CC[C@H]2[C@@H]3CC[C@@H]4C[C@H](O)CC[C@]4(C)[C@H]3CC[C@]12C [Example 40]	≤ 20%
CSCC[C@H](NC(=O)CC[C@@H](C)[C@H]1CC[C@H]2[C@@H]3CC[C@@H]4C[C@H](O)CC[C@]4(C)[C@H]3CC[C@]12C)C(=O)O [Example 48]	≤ 20%
